Where do the numbers come from? From PubChem BioAssay (NCI).

test system: EKVX NSCLC; assay: NCI-60 one-dose screen, 48 h; settings: 10 µM
The panel holds about 83,000 compounds, 20% with a hit somewhere; the sample as a whole holds those more often. The source made the active and inactive calls. How the source made its calls: active means growth percent below 10; inactive means the rest.
Choose the fitting class; nothing outside True (active), False (inactive) is accepted.

Just curious, what result did CC(=O)Nc1ccc(-c2cn(-c3cccc(C(=O)Nc4ccc(F)c(C(F)(F)F)c4)c3)nn2)cn1 get here?
False

Just curious, what result did CC(=O)Nc1ccc(-c2cn(-c3cccc(C(=O)Nc4cc(C(F)(F)F)cc(C(F)(F)F)c4)c3)nn2)cn1 get here?
True

Just curious, what result did Nc1n[nH]c2cccc(C#Cc3cccc(NC(=O)Nc4cc(C(F)(F)F)cc(C(F)(F)F)c4)c3)c12 get here?
True

Just curious, what result did COc1ccc(CN2[C@@H](C(=O)NCc3ccc(C(=O)NO)cc3)Cc3c([nH]c4ccccc34)[C@@H]2C2CC2)cc1 get here?
False

Just curious, what result did CC(=O)Nc1nc(-c2ccc(N3CCN(C)CC3)c(NS(=O)(=O)c3cccc4c(N(C)C)cccc34)c2)cs1 get here?
False

Just curious, what result did CC(=O)Nc1ccc(-n2cnc3cc(-c4ccc(NS(C)(=O)=O)cc4)ccc32)cc1 get here?
False

Just curious, what result did CCCCOc1ccc(Nc2nc3ccccc3nc2Nc2ccc(OCCCC)cc2)cc1 get here?
False

Just curious, what result did OCCNc1oc(-c2ccccc2)nc1[P+](c1ccccc1)(c1ccccc1)c1ccccc1 get here?
False

Just curious, what result did COc1cc2c(cc1OC)/C(=C\c1sc(Nc3ccc(O)cc3)nc1O)C(C(=O)O)=N2 get here?
False

Just curious, what result did COc1ccsc1/C=N/NC(=O)c1[nH]c2ccc(Br)cc2c1-c1ccccc1 get here?
False

Just curious, what result did N#Cc1c(NC(=O)c2ccc(C(F)(F)F)cc2C(F)(F)F)sc2c1CCC(=O)C2 get here?
True

Just curious, what result did C#CCNC(=O)[C@]12CCC(C)(C)C[C@H]1C1=CC[C@@H]3[C@@](C)(CCC#N)[C@H](C(=C)C)CC[C@@]3(C)[C@]1(C)CC2 get here?
False

---

system: IGROV1 ovarian; assay: NCI-60 one-dose screen, 48 h; conditions: 10 µM
Compounds without any hit were thinned out: in the full panel of roughly 83,000, 20% have a hit. Calls of active or inactive are those of the source. How the source made its calls: active means growth percent below 10; inactive means the rest.
Choose the fitting class; nothing outside active, inactive is accepted.

Just curious, what result did O=C1Nc2ccc(F)cc2/C1=C/c1cccc(OCc2ccccn2)c1 get here?
inactive

Just curious, what result did CCN(CC)CCOc1ccc(C(=C(C)c2ccccc2)c2ccc(OCCN(CC)CC)cc2)cc1 get here?
inactive

Just curious, what result did CN(C)CCNC(=O)OCCCCOc1cc(O)c2c(=O)cc(-c3ccccc3)oc2c1 get here?
active

Just curious, what result did CN(CCF)c1ccc(/C=C/C(=O)c2ccc(N)cc2O)cc1 get here?
inactive

Just curious, what result did O=C(CNc1nc(-c2ccccc2)cs1)Nc1ccc([N+](=O)[O-])cc1Cl get here?
inactive

Just curious, what result did O/N=C(\CSc1nnc(-c2c[nH]c3ccccc23)n1-c1ccccc1)c1ccc(Br)cc1 get here?
active

Just curious, what result did CC(=O)Nc1ccc(-c2cn(-c3cccc(C(=O)Nc4cccc(OC(F)(F)F)c4)c3)nn2)cn1 get here?
inactive

Just curious, what result did Cc1ccc2nc3c(nc2c1)c1cc(I)ccc1n3CCN(C)C get here?
inactive

Just curious, what result did CCOP(=O)(OCC)O[C@H]1CC[C@]2(C)[C@H]3CC[C@@H]4[C@@H]([C@](C)(O)CCC=C(C)C)CC[C@@]4(C)[C@]3(C)CC[C@H]2C1(C)C get here?
inactive

Just curious, what result did CCOP(=O)(OCC)O[C@H]1CCC(=O)[C@@H]2[C@H]1[C@H]1C[C@@H]3[C@@]4(C)CCCC(C)(C(=O)OC)[C@@H]4CC[C@@]23C=C1C(C)C (stereo not given in full) get here?
inactive

---

test system: NCI-H322M lung; test: NCI-60 one-dose screen, 48 h; conditions: 10 µM
About 83,000 compounds went through this panel and 20% of them were active in at least one assay; those are over-represented in the sample as a whole. Calls of active or inactive are those of the source. The calls were made as follows: active = growth percent below 10; inactive = the rest.
Choose the fitting class; nothing outside T (active), F (inactive) is accepted.

Just curious, what result did O=c1c2ccccc2nc(COc2ccccc2)n1/N=C/c1ccc(N2CCCC2)cc1 get here?
F

Just curious, what result did O=C(NO)c1ccc(CNC(=O)[C@H]2Cc3c([nH]c4ccccc34)[C@H](c3ccc(Cl)cc3)N2)cc1 get here?
F

Just curious, what result did O=c1[nH]c2ccccc2cc1CSc1ccc(Nc2nccc(-c3ccc4c(c3)OCO4)n2)cc1 get here?
F

Just curious, what result did CC(=O)NS(=O)(=O)c1ccc(NC(=O)CSC2=NC(c3ccccc3)C(C(C)=O)=C(C)N2)cc1 (configuration not stated) get here?
F

Just curious, what result did CN(C)c1ccc(/C=C/c2nc3ccccc3c(=O)n2CC(=O)Nc2ccccc2)cc1 get here?
F

Just curious, what result did Cc1cc(=O)oc2cc(OCCCCOc3ccc(/C=C/C(=O)Nc4ccc(F)c(Cl)c4)cc3)ccc12 get here?
F

Just curious, what result did O=c1[nH][nH]c(Nc2ccccc2)c1N=Nc1ccc(F)cc1 get here?
F

Just curious, what result did O=c1[nH]c2ccc(Cl)cc2cc1CSc1ccc(Nc2nccc(-c3ccc(Cl)cc3)n2)cc1 get here?
F

Just curious, what result did CCN1CCN(c2ccc(NC(=O)Nc3ccc4c(c3F)CCN4c3ccnc(C(=O)NC)c3)cc2C(F)(F)F)CC1 get here?
F

Just curious, what result did CC1=C2C(=C[C@@](C)(COCOCCCl)[C@@H]2O)C(=O)[C@](C)(O)C12CC2 get here?
T

Just curious, what result did CN1C(=O)N(C)C2SC(N/N=C/C=C/c3ccccc3)=NC21 (configuration not stated) get here?
F

Just curious, what result did C/C(=C\CSc1ccccc1C(=O)O)CCCC(C)CCCC(C)CCCC(C)C (configuration not stated) get here?
F

Just curious, what result did O=C1Nc2cc(Cl)ccc2/C1=C/c1cccc(OCc2ccc(Br)cc2F)c1 get here?
F

Just curious, what result did Cc1ccc(/C=C/C(=O)c2ccc(NC(=O)CSc3nnc(-c4c[nH]c5ccccc45)n3-c3ccccc3)cc2)c(C)c1 get here?
F

Just curious, what result did COc1ccc2[nH]c(=O)c(CSc3nccc(-c4ccc(Cl)cc4)n3)cc2c1 get here?
F

Just curious, what result did COc1cccc(COc2ccc(/C=C3\Oc4cc(O)ccc4C3=O)cc2)c1 get here?
F

Just curious, what result did O=C1c2ccccc2C(=O)c2c1c(C(=O)c1ccc(Cl)cc1)n1c2ccc2c3ccccc3ccc21 get here?
F

Just curious, what result did C/C(=N\NC(N)=S)c1ccc(Nc2nc(SC(C)C)nc(-c3ccccc3)c2C#N)cc1 get here?
F

Just curious, what result did C=C1CCC2C3(C)COC(c4c(F)cccc4F)OC3CCC2(C)C1CC(O)C1=CCOC1=O (configuration not stated) get here?
F

Just curious, what result did CC(=C(c1ccc(OCCN2CCCCCC2)cc1)c1ccc(OCCN2CCCCCC2)cc1)c1ccc(Cl)cc1 get here?
T

Just curious, what result did C#CCNC(=O)[C@]12CCC(C)(C)C[C@H]1C1=CC[C@@H]3[C@@](C)(CCC#N)[C@H](C(=C)C)CC[C@@]3(C)[C@]1(C)CC2 get here?
F

Just curious, what result did O=C1Nc2ccc(Cl)cc2/C1=C/c1ccc(OCc2ccc(Br)cc2F)cc1 get here?
F

Just curious, what result did CC(=O)OC[C@@]1(C)C2CC[C@]3(C)C(CC=C4C5CC(C)(C)CC[C@]5(C(=O)Nc5ccccc5)CC[C@]43C)[C@@]2(C)C[C@@H](OC(C)=O)[C@@H]1OC(C)=O (some centres not stated) get here?
F

Just curious, what result did Brc1ccc(/C=C/c2n(Cc3ccc4ccccc4c3)c3ccccc3[n+]2Cc2ccc3ccccc3c2)cc1 get here?
T

Just curious, what result did O=C(c1ccc([N+](=O)[O-])c([N+](=O)[O-])c1O)n1[nH]c(=O)c2ccccc2c1=O get here?
F

Just curious, what result did COc1ccc(/C=C/C(=O)c2ccc(NC(=O)CN3C(=O)NC(C)(c4ccccc4)C3=O)cc2)cc1 (configuration not stated) get here?
F

Just curious, what result did O=C(Cc1ccc2c(c1)CN(C1CCC(=O)NC1=O)C2=O)NCc1cccc2ccccc12 (configuration not stated) get here?
T

---

tested on: HCC-2998 colon; assay: NCI-60 one-dose screen, 48 h; conditions: 10 µM
Compounds without any hit were thinned out: in the full panel of roughly 83,000, 20% have a hit. The source made the active and inactive calls. The calls were made as follows: active = growth percent below 10; inactive = the rest.
Choose the fitting class; nothing outside YES for active, NO for inactive is accepted.

Just curious, what result did CC1(c2ccccc2)NC(=O)N(CC(=O)Nc2ccc(C(=O)/C=C/c3ccc(Br)cc3)cc2)C1=O (configuration not stated) get here?
NO

Just curious, what result did O=C(Nc1cccc(-c2cn(-c3ccc4oc(=O)ccc4c3)nn2)c1)Nc1cc(C(F)(F)F)cc(C(F)(F)F)c1 get here?
NO

Just curious, what result did O=C1Nc2cc(Cl)ccc2/C1=C/c1cccc(OCc2ccccc2)c1 get here?
YES

Just curious, what result did CN1CCc2c(sc3ncnc(N/N=C/c4cn(-c5ccccc5)nc4-c4ccc(Cl)cc4)c23)C1 get here?
YES

Just curious, what result did O=C(CNc1nc(-c2ccccc2)cs1)Nc1ccc([N+](=O)[O-])cc1 get here?
YES

Just curious, what result did O=C(N/N=C/c1ccc(-c2cccc([N+](=O)[O-])c2)o1)c1[nH]c2ccc(Br)cc2c1-c1ccccc1 get here?
NO

Just curious, what result did C=C1CCC2C3(C)COC(c4cc(F)cc(F)c4)OC3CCC2(C)C1C/C=C1/C(=O)OCC1O (configuration not stated) get here?
YES
